The measurements presented in this section are drawn from patent US4532202A.

- Assay Details: Solubility test of couplers in di-n-butyl phthalate / ethyl acetate, visual evaluation of crystal precipitation
- Type: physicochemical
- Parameters: key: A: no precipitation; B: slight precipitation; C: precipitation in large amount
- Test Parameters: 1 g coupler in 1 ml di-n-butyl phthalate and 4 ml ethyl acetate; dissolved at 70° C., left to stand at 20° C.; one hour
Value Type: Evaluation of solubility After one hour

- CCCCCCCCCCCCC(Oc1ccc(C(C)(C)CC)cc1C(C)(C)CC)C(=O)Nc1cc(O)c(NC(=O)c2c(F)c(F)c(F)c(F)c2F)cc1Cl (stereo not drawn) [Control coupler (D)]: B
- CCCCCCCCC(Oc1ccc(C(C)(C)CC)cc1C(C)(C)CC)C(=O)Nc1cc(O)c(NC(=O)c2c(F)c(F)c(F)c(F)c2F)cc1Cl (stereo not drawn) [Control coupler (C)]: B
- CCC(Oc1ccc(C(C)(C)CC)cc1C(C)(C)CC)C(=O)Nc1cc(O)c(NC(=O)c2c(F)c(F)c(F)c(F)c2F)cc1Cl (stereo not drawn) [Control coupler (B)]: B
- CCC(C)C(Oc1ccc(C(C)(C)CC)cc1C(C)(C)CC)C(=O)Nc1cc(O)c(NC(=O)c2c(F)c(F)c(F)c(F)c2F)cc1Cl (stereo not drawn): A
- CCC(C)(C)c1ccc(OC(C(=O)Nc2cc(O)c(NC(=O)c3c(F)c(F)c(F)c(F)c3F)cc2Cl)C(C)C)c(C(C)(C)CC)c1 (stereo not drawn): A

Okay, now this molecule:
Request: // Evaluation of solubility After one hour lookup, key: CC(C)C(Oc1ccc(C(C)(C)C)cc1C(C)(C)C)C(=O)Nc1cc(O)c(NC(=O)c2c(F)c(F)c(F)c(F)c2F)cc1Cl (stereo not drawn)
Result: A
